System: LAETG (Abz-LAETGK(Dnp)-CONH2)
Assay: In vitro sortase kinetics HPLC assay, LAETG substrate
Format: biochemical
Details: 1 mM 2A (LAETG) substrate; GGG varied
Description: See below for details on sortase expression and purification, and on the synthesis of Abz-LPETGK(Dnp)-CONH2 (SEQ ID NO: 19). […] Reactions were initiated with the addition of enzyme and incubated at 22.5° C. for 3 to 20 minutes before quenching with 0.5 volumes of 1 M HCl. […] Percent conversion was also calculated by using the ratio of the integrated areas of the GK(Dnp)-CONH2 and Abz-LPETGK(Dnp)-CONH2 peptide Abs355 peaks were compared directly (Example 5). […]
test_readout: kcat, 1 mM LxExG (Hz)
Provide the reading as a plain figure in Hz.

Study these solved cases before continuing.
2A.6A: 5mut + A104H K138V K162R I182V (protein) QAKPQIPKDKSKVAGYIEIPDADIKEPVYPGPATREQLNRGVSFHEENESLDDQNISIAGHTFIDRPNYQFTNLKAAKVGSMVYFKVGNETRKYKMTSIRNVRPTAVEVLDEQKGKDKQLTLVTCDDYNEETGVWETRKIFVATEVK :: 1.714
eSrtA(2A-5): 5mut + R99H A104H K138I K162R I182V (protein) QAKPQIPKDKSKVAGYIEIPDADIKEPVYPGPATREQLNHGVSFHEENESLDDQNISIAGHTFIDRPNYQFTNLKAAKIGSMVYFKVGNETRKYKMTSIRNVRPTAVEVLDEQKGKDKQLTLVTCDDYNEETGVWETRKIFVATEVK :: 1.493
2A.6B: 5mut + R99K A104H K138V D160K* K162R I182V (protein) QAKPQIPKDKSKVAGYIEIPDADIKEPVYPGPATREQLNKGVSFHEENESLDDQNISIAGHTFIDRPNYQFTNLKAAKVGSMVYFKVGNETRKYKMTSIRKVRPTAVEVLDEQKGKDKQLTLVTCDDYNEETGVWETRKIFVATEVK :: 0.5359

Now, please, on to the next molecule.
Reported kcat, 1 mM LxExG (Hz) of 2A.6C: 5mut + A104H K138P K152I D160K* K162R I182V (protein) QAKPQIPKDKSKVAGYIEIPDADIKEPVYPGPATREQLNRGVSFHEENESLDDQNISIAGHTFIDRPNYQFTNLKAAKPGSMVYFKVGNETRIYKMTSIRKVRPTAVEVLDEQKGKDKQLTLVTCDDYNEETGVWETRKIFVATEVK : 0.5359

Source: patent US10202593B2
